Test: soluble on expression in E. coli; label from the status in PepcDB or PDB records
metric_name: soluble on expression in E. coli

[
  {
    "construct_sequence": "MGHHHHHHSHMFPCQHCERKFTTKQGLERHMHIHISTVNHAFKCKYCGKAFGTQINRRRHERRHEAGLKRKPSQ",
    "observed_value": "soluble"
  },
  {
    "construct_sequence": "DDRGDFALVAGDALPQFSVEMSDGGVLNTQSFSGKVGVIVFFHTDCPDCQKELPVIQKVYDTYKENPDVLLSCISRSESGSEVQAYWEKHSFSLPFSAQNDDAVFSLFASHTIPRILITDKEGIIRAVYTDDPLATYQELAKDIDAVL",
    "observed_value": "soluble"
  },
  {
    "construct_sequence": "MAPRDIRPGAEYGDIIEEAIVTCKVFLIVFSETSQISRWVRSELNIGFSSNKPIIPFRIDPTDLKGSMKLMLNDKHWLNAYPNPEEKFSELAAVILDLLQHPAVDTISPPGFQPASNVASADGSNAGAQGLFGKLLNQLFVKRRVKVTSDHAAEIFLNGERKGKLDAYETGNYSVSEDFYQLEVYSCEYGKKVKCEYSGSFSNSSTVIISVDMATAEKQYLMKAKNITSGQINDLGIIFLDEGKFEDAQECFLKAASMGEAAAAYNLGMMYHFGKGVEIDYDVAREYYEEAVKSDYPLALNNLGSIYYNGHGVRKDIAKSFPYFCRAAERGVESAQFTVATMLFYGQGVAVDKAKAKKWFQKAAAQGCKDSQNYLNSWVDD",
    "observed_value": "not soluble"
  },
  {
    "construct_sequence": "DKSNKLQNLVAEQLVGCGFNEILNNSLTRAAYYDGLESYPSKNLVMLLNPLSADLNCMRQTLLFGGLESIAHNANRKNADLKFFEFGNCYHFDAEKKNPEKVLAPYSEDYHLGLWVTGKMVSNSWAHADENTSVYELKAYVENIFKRLGLDLHSLVVGNLSDDIYSTALTVNTKGGKRLATFGVVTKKMLKAFDVDNEVYYADLNWKELM",
    "observed_value": "soluble"
  },
  {
    "construct_sequence": "MDERFISFVCLLFTMEFQKYRTMHFPRDVYIGHDVLNRVLDVVDQNSRTRDVIIVTGNTTYELAGKKIVEILASSPYEVHLSFAGEANYENLKKIEEETNDVNAGIIIGVGGGTKIDLAKKLAYDKNLPFISIPTSPSHDGIASPRASLRRNGISYSEEGAMPIGVIADTSVMIKAPYRYLAAGAADVISNISAVKDWKLAHRLRGEEFSSSAAAMSEYSAQEVISQVGEIRKYDESSVWLVTKNILASGTAMAIAGNSRPGSGSEHLFAHALEAAGVNNMLHGEMCAMGTIVSLYLHDDNWQKIRDVFESLGVSVKARDYGLKEEVVIEALRRAHAIRPERYTILGESDMSYDAAVKALELTGII",
    "observed_value": "not soluble"
  }
]

input: Please give the measured soluble on expression in E. coli for this sequence: `MEIIHLSEIDSTNDYAKELAKEGKRNFIVLADKQNNGKGRWGRVWYSDEGGLYFSMVLDSKLYNPKVINLLVPICIIEVLKNYVDKELGLKFPNDIMVKVNDNYKKLGGILTELTDDYMIIGIGINVNNQIRNEIREIAISLKEITGKELDKVEILSNFLKTFESYLEKLKNKEIDDYEILKKYKKYSITIGKQVKILLSNNEIITGKVYDIDFDGIVLGTEKGIERIPSGICIHVR`
output: soluble

input: soluble on expression in E. coli lookup needed for `MGSDKIHHHHHHRNGKTYTQPLTGQATDKIGEQIRELFNIDINPNGPAVKANNYVSTYMKRLYKQLENYEHGENHNEEEVNAWLSADRIVSHMAQEVSHRLDDGSYSIRFAKEHVPAKEGQSIVRAQLRIHIQGIVSPVFFYIEDTNLPGDTVLVSSDDPTVVTDVTTMVDRWSHLQLSTLPIVTARASTNDELKIEAFLVIALKDEDAGPPKKRSR` , thanks.
output: not soluble
